Task for the reader: assign each of the following compounds its reported inhibition.
- experimental_target: Non-receptor tyrosine-protein kinase TNK1 (Homo sapiens) (UniProt Q13470);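 also: values are averaged percent inhibition of TNK1, compounds from the GSK published kinase inhibitor set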
- Sequence (Q13470 whole entry): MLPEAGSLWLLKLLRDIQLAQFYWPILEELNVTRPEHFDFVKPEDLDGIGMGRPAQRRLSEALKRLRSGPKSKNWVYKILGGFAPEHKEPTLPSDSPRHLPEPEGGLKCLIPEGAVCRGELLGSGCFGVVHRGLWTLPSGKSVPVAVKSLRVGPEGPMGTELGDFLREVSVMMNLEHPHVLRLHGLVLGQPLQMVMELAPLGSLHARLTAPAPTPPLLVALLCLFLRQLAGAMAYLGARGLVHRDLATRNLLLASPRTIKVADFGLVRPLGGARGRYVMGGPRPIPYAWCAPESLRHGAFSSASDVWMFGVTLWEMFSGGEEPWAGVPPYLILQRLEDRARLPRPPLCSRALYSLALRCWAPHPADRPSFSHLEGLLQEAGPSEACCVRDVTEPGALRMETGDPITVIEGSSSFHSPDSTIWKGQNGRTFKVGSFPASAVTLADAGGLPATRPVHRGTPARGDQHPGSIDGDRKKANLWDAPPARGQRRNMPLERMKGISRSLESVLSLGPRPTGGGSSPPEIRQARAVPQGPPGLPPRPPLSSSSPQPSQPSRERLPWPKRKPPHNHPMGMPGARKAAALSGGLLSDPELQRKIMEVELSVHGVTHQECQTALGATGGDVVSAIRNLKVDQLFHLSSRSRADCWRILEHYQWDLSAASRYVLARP
- conditions_used: at 1 µM
The answer should read as a number with its unit following.

inhibition for CCOc1ccc2c(-c3ccnc(Nc4cc(OC)cc(C(F)(F)F)c4)n3)cnn2n1 is 12.4%

inhibition for CC1=C(C(=O)Nc2ccc3[nH]nc(C)c3c2)C(c2ccc(C(F)(F)F)cc2)CC(=O)N1 (stereo not given) is 31.3%

inhibition for COc1ccc2ncn(-c3cc(O[C@H](C)c4ccccc4C(F)(F)F)c(C(N)=O)s3)c2c1 is 19.8%

inhibition for CNC(=O)c1cncc(/C=C/c2ccccc2C)c1 is 20.7%

inhibition for CS(=O)(=O)Nc1ccc(-c2ccc3c(NC(=O)C4CC4)n[nH]c3c2)cc1 is 5.17%

* * *

- experimental_target: Serine/threonine-protein kinase MARK1 (Homo sapiens) (UniProt Q9P0L2);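 also: reported values are mean percent inhibition of MARK1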
- Sequence (Q9P0L2 whole entry, looked up): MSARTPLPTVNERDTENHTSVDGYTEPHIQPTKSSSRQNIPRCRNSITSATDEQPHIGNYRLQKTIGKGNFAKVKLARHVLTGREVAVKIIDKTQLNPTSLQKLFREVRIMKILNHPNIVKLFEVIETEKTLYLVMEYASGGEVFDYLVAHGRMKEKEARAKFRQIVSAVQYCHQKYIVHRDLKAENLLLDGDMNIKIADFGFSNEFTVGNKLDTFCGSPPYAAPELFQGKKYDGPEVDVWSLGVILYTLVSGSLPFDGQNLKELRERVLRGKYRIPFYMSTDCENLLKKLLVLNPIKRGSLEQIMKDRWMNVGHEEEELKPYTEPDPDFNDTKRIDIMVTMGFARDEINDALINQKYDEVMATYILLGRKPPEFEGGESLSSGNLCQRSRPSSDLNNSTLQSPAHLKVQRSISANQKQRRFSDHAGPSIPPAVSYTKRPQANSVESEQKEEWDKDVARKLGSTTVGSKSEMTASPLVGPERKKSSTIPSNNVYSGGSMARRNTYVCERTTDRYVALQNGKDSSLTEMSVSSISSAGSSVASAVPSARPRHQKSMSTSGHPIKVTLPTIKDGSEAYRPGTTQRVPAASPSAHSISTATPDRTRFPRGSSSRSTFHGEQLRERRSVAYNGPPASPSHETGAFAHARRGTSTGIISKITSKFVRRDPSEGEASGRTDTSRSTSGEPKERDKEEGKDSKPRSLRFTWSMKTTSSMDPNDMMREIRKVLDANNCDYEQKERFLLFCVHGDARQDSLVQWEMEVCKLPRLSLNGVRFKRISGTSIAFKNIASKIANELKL
- conditions_used: at 1 µM
readout: inhibition (%)
Supply the numeric figure in %, leaving out any unit text.

inhibition for CCCNc1cccc(-n2ncc3c(N/N=C/c4ccncc4)ncnc32)c1 is 10.3

inhibition for COc1ccc(-c2nn3ncccc3c2-c2ccnc(Nc3ccc(F)c(F)c3)n2)cc1 is 8.38

inhibition for Cc1ccc(-c2cc3c(NC(=O)C4CC4)ncnc3o2)cc1 is 5.21

inhibition for CS(=O)(=O)CCNCc1ccc(-c2ccc3ncnc(Nc4ccc(OCc5cccc(C(F)(F)F)c5)cc4)c3c2)o1 is 3.78

inhibition for CN(c1ccc(NC(=O)NCCN2CCOCC2)cc1)c1ccnc(Nc2ccc(CS(C)(=O)=O)cc2)n1 is 7.21

inhibition for CCN1CCC(C(=O)Nc2n[nH]c3nnc(-c4cccc(F)c4F)cc23)CC1 is 2.69

inhibition for CCOc1ccc2c(-c3ccnc(Nc4cc(OC)cc(C(F)(F)F)c4)n3)cnn2n1 is 2.77

inhibition for COC(=O)Nc1nc2ccc(Oc3ccc(NC(=O)Nc4cc(C(F)(F)F)ccc4F)cc3)cc2s1 is 0.29

inhibition for CC1=C(C(=O)Nc2ccc3[nH]nc(C)c3c2)C(c2ccc(C(F)(F)F)cc2)CC(=O)N1 (stereo not given) is 3.89

inhibition for NS(=O)(=O)c1ccc(N/N=C2\C(=O)Nc3ccc(C(=O)NCc4ccncc4)cc32)cc1 is 40.7

inhibition for NS(=O)(=O)c1cccc(N/C=C2\C(=O)Nc3ccccc32)c1 is 24.4

inhibition for CC1(C)CC(n2cnc(-c3ccc(F)cc3)c2-c2ccnc(N)n2)CC(C)(C)N1 is 0.57

inhibition for COc1ccc2ncn(-c3cc(O[C@H](C)c4ccccc4C(F)(F)F)c(C(N)=O)s3)c2c1 is 5.8

inhibition for COC(=O)Nc1nc2cc(Oc3ccc(NC(=O)Nc4ccccc4)cc3)ccc2[nH]1 is 4.31

inhibition for COc1cccc(-n2ncc3c(N/N=C/c4ccc(C(=O)NCCN(C)C)cc4)ncnc32)c1 is 16.7

inhibition for CNC(=O)c1cncc(/C=C/c2ccccc2C)c1 is 7.06

inhibition for c1ccc(-c2n[nH]cc2-c2ccnc(-c3ccc(OCCn4ccnc4)cc3)c2)nc1 is 3.61

inhibition for CN(C)CCNC(=O)Nc1ccc(N(C)c2ccnc(Nc3ccc(CS(C)(=O)=O)cc3)n2)cc1 is 9.32

inhibition for O=C(Nc1n[nH]c2nnc(-c3cccnc3)cc12)C1CC1 is 0.29

inhibition for Cc1c2ccc(N(C)c3ccnc(Nc4cccc(S(N)(=O)=O)c4)n3)cc2nn1C is 7.61
